recorded.endpoint: melting point

INSERT INTO measurements (compound, value_measured) VALUES
  ('CCOP(=O)(Cc1ccc(NC(=O)/C=C\c2cnn(C)c2-c2ccc(OC)cc2)cc1)OCC', '187 to 188 °C'),
  ('COP(=O)(Cc1ccc(NC(=O)/C=C/c2cnn(C)c2-c2ccc(Br)cc2)cc1)OC', '212 to 214 °C'),
  ('CCOP(=O)(Cc1ccc(NC(=O)/C=C/c2cnn(C)c2-c2cccc(F)c2)cc1)OCC', '205 to 206 °C'),
  ('Cn1ncc(/C=C/C(=O)Nc2ccc(C(O)c3ccccc3)cc2)c1-c1ccc(F)cc1 (centres unmarked)', '192 to 195 °C'),
  ('CCOC(=O)Cc1ccc(NC(=O)/C=C/c2cnn(C)c2-c2ccc(F)cc2)cc1', '177 to 178 °C');
